The reported measurements were obtained from ChEMBL document CHEMBL1131418.

# EXPERIMENT_NOTES: Therapeutic index for anti-HIV activity against HIV-IIIB in CEM-SS cells
# Type: cell-based
OBSERVATION_TYPE: TI

TI recorded for this compound, CCN(CC)C(=S)[S][Na] [DITIOCARB SODIUM] , is > 67
